- SYSTEM UNDER TEST: Serine/threonine-protein kinase PAK 1 (Homo sapiens, UniProt Q13153)
- Sequence (Q13153 whole entry): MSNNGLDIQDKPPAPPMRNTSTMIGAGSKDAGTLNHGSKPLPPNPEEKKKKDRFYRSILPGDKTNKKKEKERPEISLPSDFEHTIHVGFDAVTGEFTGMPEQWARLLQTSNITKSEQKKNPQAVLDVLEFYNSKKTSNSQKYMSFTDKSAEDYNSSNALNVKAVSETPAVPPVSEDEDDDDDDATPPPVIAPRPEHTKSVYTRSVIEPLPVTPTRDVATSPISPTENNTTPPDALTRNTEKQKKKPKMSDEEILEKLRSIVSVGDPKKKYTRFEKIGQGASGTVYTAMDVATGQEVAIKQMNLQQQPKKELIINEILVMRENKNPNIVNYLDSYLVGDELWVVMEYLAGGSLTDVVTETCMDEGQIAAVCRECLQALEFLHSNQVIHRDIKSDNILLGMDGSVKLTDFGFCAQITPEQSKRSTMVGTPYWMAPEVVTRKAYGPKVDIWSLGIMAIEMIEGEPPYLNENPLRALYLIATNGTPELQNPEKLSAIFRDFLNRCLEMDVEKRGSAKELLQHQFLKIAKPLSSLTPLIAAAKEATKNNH
- EXPERIMENTAL PROTOCOL: Inhibition of PAK1 in human A549 cells using myelin basic protein as substrate preincubated for 24 hrs followed by PAK1 immunoprecipation and substrate addition measured after 60 mins by ATP-Glo kinase assay
MEASURED ENDPOINT: pIC50
One number for each entry, as −log10 of the molar value.

# per-item lookup of pIC50; items listed below
1. COc1ccccc1-n1cc(COC(=O)C2CCn3c(C(=O)c4ccccc4)ccc32)nn1 (configuration not stated)
2. O=C(c1ccccc1)c1ccc2n1CCC2C(=O)O (configuration not stated)

Data returned:
[7.19, 4.44]

---

- EXPERIMENTAL PROTOCOL: Inhibition of PAK1/COX2 in human A549 cells harboring Ki-RAS mutant assessed as cell growth inhibition measured after 72 hrs by MTT assay
- Format: cell-based
- EXPERIMENTAL CONDITIONS: A549, 72 h
MEASURED ENDPOINT: pIC50
Give bare numbers, as −log10 of the molar value.

Memo: O=C(c1ccccc1)c1ccc2n1CCC2C(=O)O (stereo unspecified) [KETOROLAC] , reported pIC50: 4.89

---

- SYSTEM UNDER TEST: Prostaglandin G/H synthase 2 (Homo sapiens, UniProt P35354)
- Sequence (P35354 whole entry): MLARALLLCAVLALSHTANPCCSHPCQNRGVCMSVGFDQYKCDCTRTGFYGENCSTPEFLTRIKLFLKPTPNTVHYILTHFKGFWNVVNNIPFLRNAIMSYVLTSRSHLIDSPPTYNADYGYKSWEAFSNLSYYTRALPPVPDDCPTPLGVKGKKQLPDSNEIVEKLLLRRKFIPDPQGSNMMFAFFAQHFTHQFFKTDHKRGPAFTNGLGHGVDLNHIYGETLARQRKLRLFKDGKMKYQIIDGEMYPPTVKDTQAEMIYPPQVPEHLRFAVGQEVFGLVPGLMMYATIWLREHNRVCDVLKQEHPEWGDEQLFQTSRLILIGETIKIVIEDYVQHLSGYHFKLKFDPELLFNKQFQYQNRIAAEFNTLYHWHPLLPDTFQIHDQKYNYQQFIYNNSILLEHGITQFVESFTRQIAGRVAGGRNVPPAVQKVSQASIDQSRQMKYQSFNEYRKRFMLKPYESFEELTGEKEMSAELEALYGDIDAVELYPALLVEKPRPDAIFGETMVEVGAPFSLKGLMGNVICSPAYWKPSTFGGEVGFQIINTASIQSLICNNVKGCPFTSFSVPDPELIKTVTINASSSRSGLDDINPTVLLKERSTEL
- EXPERIMENTAL PROTOCOL: Inhibition of recombinant human COX2 using arachidonic acid as substrate measured after 2 to 5 mins
MEASURED ENDPOINT: IC50 (µM)
One number for each entry, in µM.

Considering O=C(c1ccccc1)c1ccc2n1CCC2C(=O)O (stereo unspecified) , its IC50 with Prostaglandin G/H synthase 2 (Homo sapiens, UniProt P35354) was recorded as 0.14
